# tgt: Furin (Homo sapiens, UniProt P09958)
# Sequence (P09958 whole entry): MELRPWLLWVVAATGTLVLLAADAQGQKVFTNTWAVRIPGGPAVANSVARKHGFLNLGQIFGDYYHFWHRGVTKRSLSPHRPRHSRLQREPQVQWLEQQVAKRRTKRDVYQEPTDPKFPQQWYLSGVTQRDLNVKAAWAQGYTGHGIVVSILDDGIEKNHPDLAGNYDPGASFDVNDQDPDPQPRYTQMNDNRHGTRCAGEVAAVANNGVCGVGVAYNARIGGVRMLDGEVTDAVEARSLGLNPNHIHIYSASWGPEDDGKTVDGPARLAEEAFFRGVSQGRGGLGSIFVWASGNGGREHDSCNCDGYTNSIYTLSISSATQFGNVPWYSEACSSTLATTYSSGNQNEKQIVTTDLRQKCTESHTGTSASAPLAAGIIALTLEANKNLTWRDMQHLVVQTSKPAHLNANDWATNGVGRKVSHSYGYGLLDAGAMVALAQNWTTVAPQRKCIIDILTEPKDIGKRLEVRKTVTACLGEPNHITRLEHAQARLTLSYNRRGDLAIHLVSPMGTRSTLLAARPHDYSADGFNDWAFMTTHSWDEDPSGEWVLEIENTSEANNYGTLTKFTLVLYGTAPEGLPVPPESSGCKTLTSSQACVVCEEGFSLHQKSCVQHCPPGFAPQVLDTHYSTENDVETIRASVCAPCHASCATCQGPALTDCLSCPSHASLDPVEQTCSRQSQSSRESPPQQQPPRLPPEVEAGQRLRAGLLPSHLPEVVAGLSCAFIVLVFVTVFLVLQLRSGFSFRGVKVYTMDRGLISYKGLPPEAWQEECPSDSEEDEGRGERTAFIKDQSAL
# protocol_text: Inhibition of recombinant soluble human furin using pyroGlu-Arg-Thr-Lys-Arg-methyl-coumaryl-7-amide as substrate measured after 1 hr
Where a SMILES comes first, the peptide text is derived from it.
# note: exactly 10 nM is not below, so it is label 0; use label 1 for Ki strictly under it

compound	class_name
CC[C@H](C)[C@H](NC(=O)[C@H](CCCNC(=N)N)NC(=O)[C@H](C)NC(=O)[C@H](CCCNC(=N)N)NC(C)=O)C(=O)N[C@@H](CCCNC(=N)N)C(=O)N[C@@H](CCCCN)C(=O)N[C@@H](CCCCN)C(=O)N[C@@H](CCCNC(=N)N)C(=O)N[C@H](C(N)=O)[C@@H](C)O	label 1
CC[C@H](C)[C@H](NC(=O)[C@H](CCCNC(=N)N)NC(=O)[C@H](C)NC(=O)[C@@H](NC(C)=O)[C@@H](C)O)C(=O)N[C@@H](CCCNC(=N)N)C(=O)N[C@@H](CCCCN)C(=O)N[C@@H](CCCCN)C(=O)N[C@@H](CCCNC(=N)N)C(=O)N[C@H](C(N)=O)[C@@H](C)O (Ac-TARIRKKRT-NH2)	label 0
CC(=O)N[C@@H](CC(=O)O)C(=O)N[C@@H](C)C(=O)N[C@@H](CCCNC(=N)N)C(=O)N[C@@H](CCCNC(=N)N)C(=O)N[C@@H](CCCNC(=N)N)C(=O)N[C@@H](CCCCN)C(=O)N[C@@H](CCCCN)C(=O)N[C@@H](CCCNC(=N)N)C(=O)N[C@H](C(N)=O)[C@@H](C)O	label 0
CC(=O)N[C@@H](CCCNC(=N)N)C(=O)N[C@@H](C)C(=O)N[C@@H](CCCNC(=N)N)C(=O)N[C@@H](CC(=O)O)C(=O)N[C@@H](CCCNC(=N)N)C(=O)N[C@@H](CCCCN)C(=O)N[C@@H](CCCCN)C(=O)N[C@@H](CCCNC(=N)N)C(=O)N[C@H](C(N)=O)[C@@H](C)O	label 0
CC(=O)N[C@@H](CCCNC(=N)N)C(=O)N[C@@H](CO)C(=O)N[C@@H](CCCNC(=N)N)C(=O)N[C@@H](CCCNC(=N)N)C(=O)N[C@@H](CCCNC(=N)N)C(=O)N[C@@H](CCCCN)C(=O)N[C@@H](CCCCN)C(=O)N[C@@H](CCCNC(=N)N)C(=O)N[C@H](C(N)=O)[C@@H](C)O	label 0

Data credit: ChEMBL document CHEMBL4680371
